TESTED TARGET: Purified human AGT with a (His)6 tag (Homo sapiens)
Construct: (His)6
Sequence (P16455 whole entry): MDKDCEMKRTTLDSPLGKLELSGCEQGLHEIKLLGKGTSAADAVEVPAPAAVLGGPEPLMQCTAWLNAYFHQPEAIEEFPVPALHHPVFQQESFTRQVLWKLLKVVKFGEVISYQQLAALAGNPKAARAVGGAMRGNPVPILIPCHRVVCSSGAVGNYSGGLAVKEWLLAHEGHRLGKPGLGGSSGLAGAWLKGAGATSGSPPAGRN
MEASUREMENT NOTES: In vitro binding of radiolabeled FBG or IBG to purified AGT (TCA precipitation)
CONDITION CONTEXT: 10 μg AGT, 30 minutes at 37° C.; read-out: IC50 (binding to purified AGT as a function of unlabeled compound concentration)
REPORTED PROPERTY: pIC50
Scale explanation: pIC50 corresponds to minus log10 of a concentration expressed in moles per litre.

Value of measured pIC50 for the entry Nc1nc(OCc2ccc(F)cc2)c2nc[nH]c2n1 [FBG, reference compound] : 5.30
